Target: human VPAC2 (Homo sapiens, UniProt P41587)
Construct: expressed in transfected cells
Sequence (P41587 24-438): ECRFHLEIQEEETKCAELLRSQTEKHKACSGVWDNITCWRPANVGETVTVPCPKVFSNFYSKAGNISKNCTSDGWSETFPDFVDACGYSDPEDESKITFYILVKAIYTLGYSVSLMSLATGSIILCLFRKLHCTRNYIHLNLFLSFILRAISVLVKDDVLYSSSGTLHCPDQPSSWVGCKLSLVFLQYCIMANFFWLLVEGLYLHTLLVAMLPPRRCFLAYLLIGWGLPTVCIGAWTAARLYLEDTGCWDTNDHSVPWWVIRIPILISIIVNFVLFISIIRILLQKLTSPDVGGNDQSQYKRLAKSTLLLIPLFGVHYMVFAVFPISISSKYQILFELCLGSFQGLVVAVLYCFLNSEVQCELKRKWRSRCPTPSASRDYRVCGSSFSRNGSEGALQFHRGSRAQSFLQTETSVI
Assay: Filter binding assay, membranes of stable VPAC2 cell line, 125I-labeled VIP tracer (Table 2)
Settings: read-out: Human VPAC2 Receptor Binding
pIC50: −log10 of the molar value. Where no end group is shown, it is not given here. [ ]: non-standard residue; d: D form. The star is where a group is joined. Hexanoyl = CCCCCC(=O)*; Aib = CC(C)(N)C(=O)O
# binarize pIC50: threshold 9 inclusive, high side Yes, low side No

>  <Substance>
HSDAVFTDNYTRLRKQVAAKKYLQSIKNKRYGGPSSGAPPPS [Agonist P6]

>  <Target of assay>
human VPAC2 (Homo sapiens, UniProt P41587)

>  <Group label>
No

$$$$
>  <Substance>
Hexanoyl-HSDAVFTDNYTRLRKQLAAKKYLQSIKNKRYGGPSSGAPPPS [Agonist P290]

>  <Target of assay>
human VPAC2 (Homo sapiens, UniProt P41587)

>  <Group label>
Yes

$$$$
>  <Substance>
Hexanoyl-HSDAVFTDNYTRLRKQVAAKKVLQSIKNKRYGGPSSGAPPPS [Agonist P134]

>  <Target of assay>
human VPAC2 (Homo sapiens, UniProt P41587)

>  <Group label>
No

$$$$
>  <Substance>
Hexanoyl-HSDAVFTDNYTRL[Aib]KQLAA[Aib]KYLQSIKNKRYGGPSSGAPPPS [Agonist P240]

>  <Target of assay>
human VPAC2 (Homo sapiens, UniProt P41587)

>  <Group label>
No

$$$$
>  <Substance>
Hexanoyl-HSDAVFTDNYTRLRRQVAARRYLQSIRNRRYGGPSSGAPPPS [Agonist P98]

>  <Target of assay>
human VPAC2 (Homo sapiens, UniProt P41587)

>  <Group label>
Yes

$$$$
>  <Substance>
Hexanoyl-HSDAVFTDNYTR[Aib]R[Aib]QVAA[Aib]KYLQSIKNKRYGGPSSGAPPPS [Agonist P346]

>  <Target of assay>
human VPAC2 (Homo sapiens, UniProt P41587)

>  <Group label>
Yes

$$$$

Query: Could you tell me if the measured pIC50 of Hexanoyl-HSDAVFTDNYTRLRKQVAAKLYLQSIKNKRYGGPSSGAPPPS [Agonist P185] reaches 9 or more?
Result: Yes

Source listed as patent US20080026996A1.
